Tested on: MONO-MAC-6 (Acute Myeloid Leukemia);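 further: after 72 h of two-drug dosing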
Assay: Bliss excess, mean over the matrix (fraction); higher = more synergy
assay_endpoint: Bliss excess

molecule="C[C@@H](Oc1cc(-c2cnn(C3CCNCC3)c2)cnc1N)c1c(Cl)ccc(F)c1Cl [Crizotinib] + Cn1cnc2c(F)c(Nc3ccc(Br)cc3Cl)c(C(=O)NOCCO)cc21 [Selumetinib] (first compound max 10 µM, 7x7, partner max 10 µM)" assay_endpoint="Bliss excess" measurement=0.023
molecule="CCN(CCO)CCCOc1ccc2c(Nc3cc(CC(=O)Nc4cccc(F)c4)[nH]n3)ncnc2c1 [AZD2811] + C[C@@H]1COCCN1C2=NC(=NC(=C2)C3(CC3)[S@](=N)(=O)C)C4=C5C=CNC5=NC=C4 [AZD6738] (first compound max 1 µM, 7x7, partner max 10 µM)" assay_endpoint="Bliss excess" measurement=-0.0262
molecule="CN(CCO)CC[C@H](CSc1ccccc1)Nc1ccc(S(=O)(=O)NC(=O)c2ccc(N3CCC([C@@H](O)c4ccccc4-c4ccc(Cl)cc4)CC3)cc2)cc1S(=O)(=O)C(F)(F)F [AZD4320] + Cn1cnc2c(F)c(Nc3ccc(Br)cc3Cl)c(C(=O)NOCCO)cc21 [Selumetinib] (first compound max 1 µM, 7x7, partner max 3 µM)" assay_endpoint="Bliss excess" measurement=0.0401
molecule="NC1(C(=O)N[C@@H](CCO)c2ccc(Cl)cc2)CCN(c2ncnc3[nH]ccc23)CC1 [Capivasertib] + COc1nnc2ccc(N3CCC(c4ccc(OCCN5CCN(C)C(=O)[C@H]5C)cc4)CC3)nn12 [AZD5153] (first compound max 10 µM, 7x7, partner max 1 µM)" assay_endpoint="Bliss excess" measurement=-0.003
